Item-by-item account of chromatographic logP
Experiment: relative lipophylia (RM) by reverse phase thin layer chromatography
Assay type: physicochemical
Conditions: rp-tlc, acetone/water 2:1

compound	chromatographic logP
O=[N+]([O-])c1ccc(Cl)cc1C1SCc2nc3ccccc3n21 (racemic)	-0.387
Brc1ccccc1C1SCc2nc3ccccc3n21 (stereo not shown)	-0.41
Fc1cccc(C2SCc3nc4ccccc4n32)c1F (stereo not shown)	-0.452
COc1ccc(C2SCc3nc4ccccc4n32)cc1 (stereo not shown)	-0.477
N#Cc1ccc(C2SCc3nc4ccccc4n32)cc1 (stereo not shown)	-0.506
FC(F)(F)c1ccc(C2SCc3nc4ccccc4n32)cc1 (stereo not shown)	-0.387
Clc1ccc(C2SCc3nc4ccccc4n32)cc1 (stereo not shown)	-0.402

====

Assay: relative lipophylia (RM) by reverse phase thin layer chromatography
Type: physicochemical
Conditions: rp-tlc, acetone/water 2:1
Mark label 1 only for chromatographic logP values smaller than -0.4; exact matches and larger values are label 0.

compound	class-assignment
Clc1cccc(C2SCc3nc4ccccc4n32)c1 (centres unmarked) [VIII]	label 1
Oc1cccc(C2SCc3nc4ccccc4n32)c1 (centres unmarked) [XVII]	label 1
Fc1cccc(C2SCc3nc4ccccc4n32)c1 (racemic) [V]	label 1
FC(F)(F)c1cccc(C2SCc3nc4ccccc4n32)c1 (centres unmarked) [XV]	label 0
Clc1ccc(C2SCc3nc4ccccc4n32)cc1Cl (centres unmarked) [XXVII]	label 0
Clc1ccc(C2SCc3nc4ccccc4n32)c(Cl)c1 (centres unmarked) [XXV]	label 0
Fc1ccc(C2SCc3nc4ccccc4n32)cc1F (centres unmarked) [XXIII]	label 1

====

Assay: relative lipophylia (RM) by reverse phase thin layer chromatography
Assay type: physicochemical
Details: rp-tlc, acetone/water 2:1
Item-by-item account of chromatographic logP

compound	chromatographic logP
Cc1ccccc1C1SCc2nc3ccccc3n21 (centres unmarked) [X]	-0.452
FC(F)(F)c1ccccc1C1SCc2nc3ccccc3n21 (centres unmarked) [XIV]	-0.349
O=[N+]([O-])c1ccc(Cl)c(C2SCc3nc4ccccc4n32)c1 (centres unmarked) [XXX]	-0.423
Fc1cccc(Cl)c1C1SCc2nc3ccccc3n21 (racemic) [XXIX]	-0.452
Fc1ccc(C2SCc3nc4ccccc4n32)c(F)c1 (centres unmarked) [XX]	-0.452
Fc1ccccc1C1SCc2nc3ccccc3n21 (racemic) [IV]	-0.468
COc1cccc(C2SCc3nc4ccccc4n32)c1 (centres unmarked) [XII]	-0.436
Clc1cccc(C2SCc3nc4ccccc4n32)c1Cl (centres unmarked) [XXIV]	-0.355
O=[N+]([O-])c1cc(C2SCc3nc4ccccc4n32)ccc1Cl (centres unmarked) [XXXI]	-0.414
Fc1ccc(C2SCc3nc4ccccc4n32)cc1 (centres unmarked) [VI]	-0.412
Brc1ccc(C2SCc3nc4ccccc4n32)cc1 (centres unmarked) [III]	-0.43

====

Tested on: human T4-lymphocyte cell line (CEM)
Assay: growth inhibition of normal uninfected cells (CEM)
Assay type: cell-based
Details: CCRF-CEM, uninfected CEM cells, read-out: IC50 (toxic concentration, 50% growth inhibition of normal uninfected cells)
Protocol: For their effects on HIV-induced cytopathogenicity in human T4 -lymphocyte cell line (CEM), the compounds of the present invention were evaluated according to NIH procedures as described by R. Vince et al., Biochem. Biophys.Res.Comm., 156, 1046, 1988 and by O. S. Weislow et al. J. Natl.Canc. Inst., 81. 577,1988. b) the inhibitory concentration 50% (IC50) which represents the toxic concentration of drug resulting in 50% growth inhibition of normal uninfected cells. […]

molecule	measurement-units	bound-operator	IC50
Fc1cccc(Cl)c1C1SCc2nc3ccccc3n21 (racemic)	µM	=	19.6
Fc1ccccc1C1SCc2nc3ccccc3n21 (racemic)	µM	>	126
O=[N+]([O-])c1ccccc1C1SCc2nc3ccccc3n21 (centres unmarked)	µM	=	37.2
Clc1cccc(Cl)c1C1SCc2nc3ccccc3n21 (racemic)	µM	=	22.3
Oc1cccc(C2SCc3nc4ccccc4n32)c1 (centres unmarked)	µM	=	127
Fc1cccc(C2SCc3nc4ccccc4n32)c1 (racemic)	µM	=	67.4
O=[N+]([O-])c1ccc(Cl)c(C2SCc3nc4ccccc4n32)c1 (centres unmarked)	µM	>	54.4
N#Cc1cccc(C2SCc3nc4ccccc4n32)c1 (centres unmarked)	µM	=	38.3
